- target-system: Bromodomain-containing protein 2 (Homo sapiens, UniProt P25440)
- Sequence (P25440 whole entry, the tested form may be a part): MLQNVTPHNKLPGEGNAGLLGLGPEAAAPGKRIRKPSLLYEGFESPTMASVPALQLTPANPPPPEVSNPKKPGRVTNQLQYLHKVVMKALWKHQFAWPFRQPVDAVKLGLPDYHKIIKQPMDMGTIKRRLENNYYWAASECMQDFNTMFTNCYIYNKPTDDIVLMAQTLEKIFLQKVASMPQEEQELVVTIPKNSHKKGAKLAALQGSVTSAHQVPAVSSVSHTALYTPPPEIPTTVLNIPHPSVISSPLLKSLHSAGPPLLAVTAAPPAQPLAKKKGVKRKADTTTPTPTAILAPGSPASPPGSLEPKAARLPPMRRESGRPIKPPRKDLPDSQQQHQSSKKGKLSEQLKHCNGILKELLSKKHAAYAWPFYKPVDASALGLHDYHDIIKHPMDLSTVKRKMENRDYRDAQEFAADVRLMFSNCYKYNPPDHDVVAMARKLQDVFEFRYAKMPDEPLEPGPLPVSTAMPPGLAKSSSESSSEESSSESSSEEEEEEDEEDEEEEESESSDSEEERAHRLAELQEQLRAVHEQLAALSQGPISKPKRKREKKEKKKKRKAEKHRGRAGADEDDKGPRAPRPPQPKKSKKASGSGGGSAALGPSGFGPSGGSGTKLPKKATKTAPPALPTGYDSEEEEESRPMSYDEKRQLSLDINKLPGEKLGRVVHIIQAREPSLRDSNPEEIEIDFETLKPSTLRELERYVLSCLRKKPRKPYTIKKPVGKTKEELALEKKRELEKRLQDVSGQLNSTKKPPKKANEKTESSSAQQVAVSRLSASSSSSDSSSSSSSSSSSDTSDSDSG
- test-name: TR-FRET In-Vitro Binding Assays for BRD2, BRD3, and BRD4: All assays were performed in 384 well microtiter plates. Each assay plate contained 8-point serial dilutions for 40 test compounds, plus 16 high- and 16 low controls. Liquid handling and incubation steps were done on an Innovadyne Nanodrop Express equipped with a robotic arm (Thermo CatX, Perkin Elmer/Caliper Twister II) and an incubator (Liconic STX40, Thermo Cytomat 2C450). The assay plates were prepared by addition of 50 nl per well of compound solution in 90% DMSO HummingBird nanodispenser (Zinsser Analytic). The assay was started by stepwise addition of 4.5 μl per well of bromo domain protein (50 mM HEPES, pH 7.5, 0.005% Tween20, 0.1% BSA, 50 mM NaCl, 45 nM His-Brd2(60-472) or 45 nM His-Brd3(20-477) or 45 nM His-Brd4(44-477) all proteins produced in-house) and 4.5 μl per well of peptide solution (50 mM HEPES, pH 7.5, 0.005% Tween20, 0.1% BSA, 50 mM NaCl, 60 nM acetyl-histone H4 (AcK 5, 8, 12, 16) (Biosyntan GmbH)). Reactions were incubated at 30° C. for 35 minutes. Subsequently 4.5 μl per well detection mix (50 mM HEPES, pH 7.5, 0.005% Tween20, 0.1% BSA, 50 mM NaCl, 3 nM Eu-labeled anti-His6 antibody, 21 nM streptavidin-allophycocyanin) were added. After 35 minutes incubation at 30° C., plates were measured in a Perkin Elmer EnVision multilabel reader. Concentrations causing 50% inhibition (1050) values were determined from percent inhibition values at different compound concentrations by non-linear regression analysis.
property: pIC50
Give bare numbers, as −log10 of the molar value.

Give measured pIC50 for COc1ncccc1-n1nc(C)c2c1C(c1ccc(Cl)cc1)N(c1cc(C)c(=O)n(C)c1)C2=O (stereo unspecified) (Bromodomain-containing protein 2 (Homo sapiens, UniProt P25440)).
7.11

====

- target-system: Bromodomain-containing protein 3 (Homo sapiens, UniProt Q15059)
- Sequence (Q15059 whole entry, the tested form may be a part): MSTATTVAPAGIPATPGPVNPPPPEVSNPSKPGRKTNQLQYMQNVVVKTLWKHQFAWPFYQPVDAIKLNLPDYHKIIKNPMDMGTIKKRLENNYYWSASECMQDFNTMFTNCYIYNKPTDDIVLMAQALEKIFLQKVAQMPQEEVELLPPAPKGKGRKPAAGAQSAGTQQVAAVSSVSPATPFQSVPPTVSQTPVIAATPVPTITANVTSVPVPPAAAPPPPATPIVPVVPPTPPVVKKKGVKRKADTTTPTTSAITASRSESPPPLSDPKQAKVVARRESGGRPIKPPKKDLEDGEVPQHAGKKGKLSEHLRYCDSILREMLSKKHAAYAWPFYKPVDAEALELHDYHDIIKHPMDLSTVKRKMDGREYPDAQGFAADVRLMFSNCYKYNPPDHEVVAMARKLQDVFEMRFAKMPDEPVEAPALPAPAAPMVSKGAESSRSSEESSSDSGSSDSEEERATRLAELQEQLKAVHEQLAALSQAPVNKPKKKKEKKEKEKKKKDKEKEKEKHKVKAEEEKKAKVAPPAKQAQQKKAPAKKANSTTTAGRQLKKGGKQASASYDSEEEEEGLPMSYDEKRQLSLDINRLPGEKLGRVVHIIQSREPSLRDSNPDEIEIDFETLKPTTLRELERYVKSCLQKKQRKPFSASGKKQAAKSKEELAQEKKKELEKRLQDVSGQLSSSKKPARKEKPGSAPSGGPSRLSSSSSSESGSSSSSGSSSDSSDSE
- test-name: TR-FRET In-Vitro Binding Assays for BRD2, BRD3, and BRD4: All assays were performed in 384 well microtiter plates. Each assay plate contained 8-point serial dilutions for 40 test compounds, plus 16 high- and 16 low controls. Liquid handling and incubation steps were done on an Innovadyne Nanodrop Express equipped with a robotic arm (Thermo CatX, Perkin Elmer/Caliper Twister II) and an incubator (Liconic STX40, Thermo Cytomat 2C450). The assay plates were prepared by addition of 50 nl per well of compound solution in 90% DMSO HummingBird nanodispenser (Zinsser Analytic). The assay was started by stepwise addition of 4.5 μl per well of bromo domain protein (50 mM HEPES, pH 7.5, 0.005% Tween20, 0.1% BSA, 50 mM NaCl, 45 nM His-Brd2(60-472) or 45 nM His-Brd3(20-477) or 45 nM His-Brd4(44-477) all proteins produced in-house) and 4.5 μl per well of peptide solution (50 mM HEPES, pH 7.5, 0.005% Tween20, 0.1% BSA, 50 mM NaCl, 60 nM acetyl-histone H4 (AcK 5, 8, 12, 16) (Biosyntan GmbH)). Reactions were incubated at 30° C. for 35 minutes. Subsequently 4.5 μl per well detection mix (50 mM HEPES, pH 7.5, 0.005% Tween20, 0.1% BSA, 50 mM NaCl, 3 nM Eu-labeled anti-His6 antibody, 21 nM streptavidin-allophycocyanin) were added. After 35 minutes incubation at 30° C., plates were measured in a Perkin Elmer EnVision multilabel reader. Concentrations causing 50% inhibition (1050) values were determined from percent inhibition values at different compound concentrations by non-linear regression analysis.
property: pIC50
One number for each entry, as −log10 of the molar value.

Indicate the recorded pIC50 value for this molecule: CCOc1ncccc1-n1nc(C)c2c1C(c1ccc(Cl)cc1)N(c1cc(C)c(=O)n(C)c1)C2=O (stereo unspecified)
7.21

Values from ChEMBL document CHEMBL5725537
